Observed Ki, system Cannabinoid receptor 1 (Homo sapiens).

Task: Please report the recorded Ki for Cc1cc(C2=NN(C(=O)Nc3ccccc3)CC2Cc2ccccc2)ccc1Cl (centres undefined) .
Output: > 3 µM

Task: Please report the recorded Ki for O=C(Nc1ccccc1)N1CC(Cc2ccccc2)C(c2ccc(Cl)cc2)=N1 (centres undefined) .
Output: > 3 µM

Task: Please report the recorded Ki for CC(=O)N1CC(Cc2ccccc2)C(c2ccccc2)=N1 (centres undefined) .
Output: > 3 µM

Task: Please report the recorded Ki for Cc1ccc(CC2CN(C(=O)NC3C4(C)CCC(C4)C3(C)C)N=C2c2ccc(Cl)c(C)c2)cc1 (centres undefined) .
Output: > 1 µM

----------
Target: Cannabinoid receptor 2 (Homo sapiens, UniProt P34972)
Sequence (P34972 whole entry): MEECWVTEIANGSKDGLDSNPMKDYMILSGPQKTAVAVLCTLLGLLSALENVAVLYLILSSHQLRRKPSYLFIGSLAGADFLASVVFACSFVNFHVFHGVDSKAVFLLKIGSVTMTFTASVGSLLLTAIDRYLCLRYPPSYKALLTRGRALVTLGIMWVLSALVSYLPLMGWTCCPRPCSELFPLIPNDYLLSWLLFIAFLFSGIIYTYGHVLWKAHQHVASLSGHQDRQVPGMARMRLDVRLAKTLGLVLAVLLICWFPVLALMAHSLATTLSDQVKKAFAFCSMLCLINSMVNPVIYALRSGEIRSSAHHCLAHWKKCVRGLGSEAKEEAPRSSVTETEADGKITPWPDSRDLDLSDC
Assay: Agonist activity at human CB2 receptor expressed in CHO cell membranes after 1 hr by [35S]GTPgammaS binding assay
Kindly state pEC50 for each of the entries shown.
Field pEC50 (float): negative decimal logarithm of the concentration in molar.

Task: Please report the recorded pEC50 for O=C(NC1CCCCC1)N1CC(Cc2ccccc2)C(c2ccccc2)=N1 (centres undefined) .
Output: 6.53

Task: Please report the recorded pEC50 for Cc1cc(C2=NN(C(=O)NC3C4(C)CCC(C4)C3(C)C)CC2Cc2ccccc2)ccc1Cl (centres undefined) .
Output: 6.13

Task: Please report the recorded pEC50 for Cc1ccc(CC2CN(C(=O)NC3CCCCC3)N=C2c2ccc(Cl)c(C)c2)cc1 (centres undefined) .
Output: 6.43

Task: Please report the recorded pEC50 for Cc1ccc(CC2CN(C(=O)NC3C4(C)CCC(C4)C3(C)C)N=C2c2ccc(Cl)c(C)c2)cc1 (centres undefined) .
Output: 6.72

----------
Organism: Homo sapiens
Assay: Selectivity ratio of Ki for human CB1 receptor to Ki for human CB2 receptor
Parameter: Ratio Ki

Task: Please report the recorded Ratio Ki for Cc1cc(C2=NN(C(=O)NC3CCCCC3)CC2C2CCCC2)ccc1Cl (stereo not given) .
Output: 1.2

Task: Please report the recorded Ratio Ki for Cc1ccc(CC2CN(C(=O)NC3C4(C)CCC(C4)C3(C)C)N=C2c2ccc(Cl)c(C)c2)cc1 (stereo not given) .
Output: > 4

Task: Please report the recorded Ratio Ki for O=C(NC1CCCCC1)N1CC(Cc2ccccc2)C(c2ccccc2)=N1 (stereo not given) .
Output: > 6

Task: Please report the recorded Ratio Ki for Cc1cc(C2=NN(C(=O)NC3C4(C)CCC(C4)C3(C)C)CC2Cc2ccccc2)ccc1Cl (stereo not given) .
Output: > 4

Task: Please report the recorded Ratio Ki for Cc1ccc(CC2CN(C(=O)NC3CCCCC3)N=C2c2ccc(Cl)c(C)c2)cc1 (stereo not given) .
Output: > 8

----------
Kindly state pKi for each of the entries shown.
Molecular target: Cannabinoid receptor 2 (Homo sapiens)
pKi: −log10 of the molar value.

Task: Please report the recorded pKi for Cc1cccc(C2=NN(C(=O)NC3CCCCC3)CC2Cc2ccccc2)c1 (centres undefined) .
Output: < 5.52

Task: Please report the recorded pKi for CC(=O)N1CC(Cc2ccccc2)C(c2ccccc2)=N1 (centres undefined) .
Output: < 5.52

Task: Please report the recorded pKi for O=C(Nc1ccccc1)N1CC(Cc2ccccc2)C(c2ccc(Cl)cc2)=N1 (centres undefined) .
Output: < 5.52

Task: Please report the recorded pKi for Cc1ccc(CC2CN(C(=O)NC3CCCCC3)N=C2c2ccc(Cl)c(C)c2)cc1 (centres undefined) .
Output: 6.41

Task: Please report the recorded pKi for O=C(NC1CCCCC1)N1CC(Cc2ccccc2)C(c2ccc(Cl)cc2)=N1 (centres undefined) .
Output: < 5.52

Task: Please report the recorded pKi for Cc1cc(C2=NN(C(=O)NC3CCCCC3)CC2Cc2ccccc2)ccc1Cl (centres undefined) .
Output: < 6.00

Task: Please report the recorded pKi for Cc1cc(C2=NN(C(=O)Nc3ccccc3)CC2Cc2ccccc2)ccc1Cl (centres undefined) .
Output: < 5.52

Task: Please report the recorded pKi for Cc1cc(C2=NN(C(=O)NC3CCCCC3)CC2C2CCCC2)ccc1Cl (centres undefined) .
Output: 5.44

Task: Please report the recorded pKi for O=C(Nc1ccccc1)N1CC(Cc2ccccc2)C(c2ccccc2)=N1 (centres undefined) .
Output: < 5.52

Task: Please report the recorded pKi for Cc1cc(C2=NN(C(=O)NC3C4(C)CCC(C4)C3(C)C)CC2Cc2ccccc2)ccc1Cl (centres undefined) .
Output: 6.16

Task: Please report the recorded pKi for Cc1cccc(C2=NN(C(=O)Nc3ccccc3)CC2Cc2ccccc2)c1 (centres undefined) .
Output: < 5.52

Task: Please report the recorded pKi for Cc1ccc(CC2CN(C(=O)Nc3ccccc3)N=C2c2ccc(Cl)c(C)c2)cc1 (centres undefined) .
Output: < 6.00

Task: Please report the recorded pKi for O=C(NC1CCCCC1)N1CC(Cc2ccccc2)C(c2ccccc2)=N1 (centres undefined) .
Output: 6.30

Task: Please report the recorded pKi for Cc1ccc(CC2CN(C(=O)NC3C4(C)CCC(C4)C3(C)C)N=C2c2ccc(Cl)c(C)c2)cc1 (centres undefined) .
Output: 6.60

----------
Biological target: Cannabinoid receptor 2 (Homo sapiens)
Experiment: Agonist activity at human CB2 receptor expressed in CHO cell membranes after 1 hr by [35S]GTPgammaS binding assay relative to baseline
Type: functional
Parameter: Emax (%)
Please respond with the number in % and leave the unit unwritten.

Task: Please report the recorded Emax for Cc1ccc(CC2CN(C(=O)NC3C4(C)CCC(C4)C3(C)C)N=C2c2ccc(Cl)c(C)c2)cc1 (centres undefined) .
Output: 163

Task: Please report the recorded Emax for O=C(NC1CCCCC1)N1CC(Cc2ccccc2)C(c2ccccc2)=N1 (centres undefined) .
Output: 136

Task: Please report the recorded Emax for Cc1cc(C2=NN(C(=O)NC3C4(C)CCC(C4)C3(C)C)CC2Cc2ccccc2)ccc1Cl (centres undefined) .
Output: 183

Task: Please report the recorded Emax for Cc1ccc(CC2CN(C(=O)NC3CCCCC3)N=C2c2ccc(Cl)c(C)c2)cc1 (centres undefined) .
Output: 187
